Provenance of the data: ChEMBL document CHEMBL1201862

Tested on: OVCAR-3
Experiment: NCI tumour cell line growth inhibition, 48 h
Activity calls are given as the source filed them. Cut-off read from the data, not from the text of the source: active = GI50 up to about 1.1 µM and inactive = higher. Where a SMILES comes first, the peptide text is derived from it. The star is where a group is joined. Boc = CC(C)(C)OC(=O)*
Field 'call' accepts 1 (active), 0 (inactive)

What outcome does the record of this test show for "O=C(O)CCSC(=O)Nc1ccccc1Cl" ?
0

// repeat for COc1ccc(C(O)/C(=N/N)c2nc3ccc(Cl)cc3nc2O)cc1 (stereo not drawn) and report
0

// repeat for "Cc1cc(=O)n2c3c(c4c(cc13)c(CO)cc(=O)n4C)OC2" and report
0

// repeat for COc1ccc(/C(=N/NC(N)=O)C2(O)C(=O)Nc3ccc([N+](=O)[O-])cc32)cc1 (stereo not drawn) and report
0

// repeat for O=[N+]([O-])C1C2C=CC(C2)[C@H]1c1ccccc1Cl (stereo partly drawn) and report
0

// repeat for "O=C(/C=C/c1ccccc1)CSc1nc2ccc(I)cc2c(=O)n1Cc1ccccc1" and report
0

// repeat for "COc1cc(C=O)cc(/C=N/c2ccccn2)c1O" and report
0

// repeat for "S=c1[nH]nc(Cn2c3ccc(Br)cc3c3nc4ccccc4nc32)o1" and report
0

// repeat for "CC(=O)Nc1ccc2cc(C#N)c(=O)[nH]c2n1" and report
0

// repeat for "COC(=O)Nc1nc2cc(S(=O)(=O)N3CCOCC3)ccc2[nH]1" and report
0

// repeat for CSc1nc2c(nc(C)c(=O)n2C2OCC(OC(C)=O)C(OC(C)=O)C2OC(C)=O)c(=O)[nH]1 (stereo not drawn) and report
0

// repeat for "Nc1ccc2ncc(Nc3ccc(Cl)c(Cl)c3)nc2c1" and report
0

// repeat for CC12CP(=O)(c3ccccc3)CC1c1ccccc1C2c1ccccc1 (stereo not drawn) and report
0

// repeat for "CCCCCCCCCC(=O)NCCc1c[nH]c2ccc(OC)cc12" and report
0

// repeat for "NC(=O)NNC/C(Cl)=C(\Cl)C(=O)O" and report
0

// repeat for O=C(O)C1(C(O)c2ccccc2)SCCCS1 (stereo not drawn) and report
0

// repeat for "CCCCCCCCCCCCCCCCCCOP1(=O)OCCO1" and report
0

// repeat for "C=C1c2ccccc2Oc2nc3nc(N)c(C#N)c(N)c3c(N)c21" and report
0

// repeat for CC12OC(=O)[C@@]3(O)CCC4C(C[C@H]5O[C@]56CC=CC(=O)[C@]46C)C45OC[C@H]6C(=O)O[C@@H]1C[C@@]6(C)[C@H](C4=O)C23O5 (stereo partly drawn) and report
1

// repeat for CC(C)COC(c1ccc2c(c1)OCO2)C(C)Br (stereo not drawn) and report
0

// repeat for "Cc1cc([C@H](C#N)c2nc3ccccc3s2)nc(Cl)n1" and report
0

// repeat for "O=c1c(Cl)nsnc1Cl" and report
0

// repeat for "O=c1c2cc(Br)cc(Br)c2[nH]c(=S)n1-c1ccc(/N=N/c2ccc(O)c3cccnc23)cc1" and report
0

// repeat for CN1N=C2c3ccccc3CC[C@H]2C1c1ccccc1 (stereo partly drawn) and report
0

// repeat for Cn1c(CCC2(C)Cc3ccccc3C(=O)O2)cc2ccccc2c1=O (stereo not drawn) and report
0

// repeat for COc1ccc(NC(=O)CC(=O)N2N=C(c3ccccc3)C(/N=N/c3ccc(S(=O)(=O)CCOS(=O)(=O)O)cc3)C2=O)cc1 (stereo not drawn) and report
0

// repeat for CC(C)=CCC[C@](C)(O[C@@H]1O[C@H](CO)[C@@H](O)[C@H](O)[C@H]1O)[C@H]1CC[C@]2(C)[C@@H]1[C@H](O)C[C@@H]1[C@@]3(C)CC[C@H](O)C(C)(C)[C@@H]3[C@@H](O[C@@H]3O[C@H](CO)[C@@H](O)[C@H](O)[C@H]3O)C[C@]12C [GINSENOSIDE RG1] and report
0

// repeat for O=C1CC(O)(c2ccccc2)C(c2ccccc2)=C1c1ccccc1 (stereo not drawn) and report
0

// repeat for CC12CCC(=O)N1[C@@H](c1ccccc1)[C@@H](c1ccccc1)O2 (stereo partly drawn) and report
0

// repeat for "O=C1Oc2ccccc2C(=O)/C1=C/N1C(=O)CNC1=S" and report
0

// repeat for "Cc1c(C(=O)CC(=O)C(=O)Nc2ccccc2C(F)(F)F)[n+]([O-])c2ccccc2[n+]1[O-]" and report
0

// repeat for "C[N+]1(C)C/C(=C\C=C\c2ccccc2)C(=O)/C(=C/C=C/c2ccccc2)C1" and report
0

// repeat for "COc1cc(-c2cc(O)c(-c3ccc4ccccc4n3)c(O)n2)cc(OC)c1OC" and report
0

// repeat for COC1OC(CBr)C(OC(=O)c2ccccc2)C(O)C1Br (stereo not drawn) and report
0

// repeat for "Cn1c(=O)c2c3oc(=O)cc(O)c3c(=O)n3c4ccccc4n(c1=O)c23" and report
0

// repeat for CNC(=O)CNC(=O)C(NC(=O)CNC(=O)C1CCCN1C(=O)C(C)NC(=O)C(NC(=O)OC(C)(C)C)C(C)C)C(C)C (stereo not drawn) (Boc-VAPGVG-NHMe; configuration not given here) and report
0

// repeat for "CC(=O)C=C1Nc2ccccc2N1" and report
0

// repeat for O=C1OC(CC(=O)c2ccc(Cl)cc2)C(Cl)=C1Cl (stereo not drawn) and report
0

// repeat for COC(=O)NN1C(C)=C(C(=O)OC)C2(CCOC2=O)C1(C)O (stereo not drawn) and report
0

// repeat for "Clc1n[nH]c2ccccc12" and report
0

// repeat for "Nc1nc2c(=O)c3ccccc3sc2s1" and report
0

// repeat for "CN(C)CCNC(=O)c1cccc2[nH]c(-c3ccccc3)nc12" and report
0

// repeat for "Cc1nc(C(N)=S)sc1C(=O)CC(=O)C(=O)Nc1ccccc1[N+](=O)[O-]" and report
0
